Biological target: abl (Homo sapiens, UniProt P00519)
Sequence (P00519 242-493 limits assumed): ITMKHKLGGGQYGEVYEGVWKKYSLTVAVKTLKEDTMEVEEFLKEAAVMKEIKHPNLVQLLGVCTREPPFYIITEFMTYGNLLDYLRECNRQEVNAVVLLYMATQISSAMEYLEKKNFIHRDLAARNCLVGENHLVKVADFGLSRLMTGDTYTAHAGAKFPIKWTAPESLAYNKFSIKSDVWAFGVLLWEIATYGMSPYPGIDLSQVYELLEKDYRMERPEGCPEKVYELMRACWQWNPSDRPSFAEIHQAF
Test: abl kinase assay (ELISA or Alphascreen)
Format: biochemical
Conditions: read-out: abl inhibition of enzyme activity
# inhibition at 10 µM per record follows

MOL SMILES | inhibition at 10 µM
COc1cc(-c2cncc(C(=O)Nc3cc(C)ccc3C)c2)ccc1O | ≥ 50%
COc1cc(NC(=O)c2cncc(-c3cccs3)c2)cc(OC)c1OC | < 50%
O=C(Nc1ccccc1)c1cncc(-c2cccs2)c1 | < 50%
Cc1ccccc1NC(=O)c1cncc(-c2cc(C)c(O)c(C)c2)c1 | ≥ 50%
COc1cc(-c2cncc(C(=O)NCCO)c2)cc(OC)c1OC | < 50%
Cc1ccc(C)c(NC(=O)c2cncc(-c3ccc4c(c3)OCO4)c2)c1 | < 50%

* * *

Molecular target: hck (Homo sapiens, UniProt P08631)
Sequence (P08631 262-515 limits assumed, species assumed): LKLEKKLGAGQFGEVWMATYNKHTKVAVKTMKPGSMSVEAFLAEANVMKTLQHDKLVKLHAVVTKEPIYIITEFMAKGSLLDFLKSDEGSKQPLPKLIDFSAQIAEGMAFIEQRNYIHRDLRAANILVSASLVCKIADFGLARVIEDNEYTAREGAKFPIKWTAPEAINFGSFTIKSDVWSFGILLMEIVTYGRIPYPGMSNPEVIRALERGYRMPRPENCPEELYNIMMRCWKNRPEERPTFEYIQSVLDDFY
Test: hck kinase assay (ELISA or Alphascreen)
Type: biochemical
Conditions: read-out: hck inhibition of enzyme activity
Examples of molecules with documented inhibition at 10 µM follow.

MOLECULE | inhibition at 10 µM
COc1cc(-c2cncc(C(=O)Nc3ccccc3C)c2)cc(OC)c1OC | ≥ 50%
COc1cc(-c2cncc(C(=O)NCCc3ccccc3)c2)c(Cl)c(OC)c1OC | < 50%
COc1cc(-c2cncc(C(=O)Nc3ccccc3C)c2)ccc1O | ≥ 50%
CN(Cc1ccccc1)C(=O)c1cncc(-c2ccc(F)cc2)c1 | < 50%
COc1cccc(-c2cncc(C(=O)N[C@H](C)c3ccccc3)c2)c1 | < 50%
Cc1ccc(CNC(=O)c2cncc(-c3ccc(O)cc3)c2)cc1 | < 50%
COc1ccc(CNC(=O)c2cncc(-c3ccc4c(c3)OCO4)c2)cc1 | < 50%
O=C(NCc1ccc(Cl)c(Cl)c1)c1cncc(-c2ccc(F)cc2)c1 | < 50%
Cc1ccc(C)c(NC(=O)c2cncc(-c3ccc(F)cc3)c2)c1 | < 50%
O=C(NCCc1ccccc1)c1cncc(-c2ccc3c(c2)OCO3)c1 | < 50%
CC(NC(=O)c1cncc(-c2cccs2)c1)c1ccc(F)cc1 (centres unmarked) | < 50%

* * *

Molecular target: Zap70 (Homo sapiens, UniProt P43403)
Sequence (P43403 338-600 limits assumed, species assumed): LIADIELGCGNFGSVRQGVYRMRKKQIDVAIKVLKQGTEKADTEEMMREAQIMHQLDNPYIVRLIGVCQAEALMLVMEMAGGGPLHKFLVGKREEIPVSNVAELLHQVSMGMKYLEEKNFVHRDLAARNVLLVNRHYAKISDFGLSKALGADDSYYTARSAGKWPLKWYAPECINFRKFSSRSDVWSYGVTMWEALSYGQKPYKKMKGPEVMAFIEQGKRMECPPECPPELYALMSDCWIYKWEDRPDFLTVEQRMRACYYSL
Assay: Zap70 kinase assay (ELISA or Alphascreen)
Type: biochemical
Conditions: read-out: Zap70 inhibition of enzyme activity
In this section, each of the compounds is paired with its reported inhibition at 10 µM.

MOL SMILES | inhibition at 10 µM
COc1ccc(NC(=O)c2cncc(-c3cccnc3)c2)c(OC)c1 | < 50%
Cc1cc(F)ccc1NC(=O)c1cncc(-c2ccncc2)c1 | < 50%
COc1cc(CNC(=O)c2cncc(-c3cccc(OC)c3)c2)cc(OC)c1 | ≥ 50%
COc1cc(-c2cncc(C(=O)Nc3cc(F)ccc3C)c2)c(Cl)c(OC)c1OC | < 50%
C[C@@H](NC(=O)c1cncc(-c2ccc(O)cc2)c1)c1ccccc1 | < 50%
COc1cc(-c2cncc(C(=O)Nc3cc(C)ccc3C)c2)ccc1O | < 50%

* * *

Molecular target: hck (Homo sapiens)
Assay: hck kinase assay (ELISA or Alphascreen)
Assay type: biochemical
Conditions: read-out: hck inhibition of enzyme activity
Description: Kinase assays were performed in a 96 well capture-based ELISA assay or in 384 well Optiplates (Packard) using an Alphascreen Protein Tyrosine Kinase kit. […] In the ELISA assay tyrosine phosphorylation was quantitated following transfer to an avidin coated ELISA plate using peroxidase-linked anti-phosphotyrosine antibody PY20. […] The ELISA plates were read on a BMG Fluorostar, the Alphascreen plates were read on a Packard Fusion Alpha. […]

COMPOUND | inhibition at 10 µM
COc1cc(NC(=O)c2cncc(-c3cccs3)c2)cc(OC)c1OC | < 50%
COc1cccc(-c2cncc(C(=O)Nc3cc(C)ccc3C)c2)c1 | ≥ 50%
O=C(NCc1ccco1)c1cncc(-c2ccc(F)cc2)c1 | < 50%
COc1cc(NC(=O)c2cncc(-c3ccc(F)cc3)c2)cc(OC)c1OC | < 50%
COc1cc(-c2cncc(C(=O)Nc3ccc(F)cc3C)c2)c(Cl)c(OC)c1OC | ≥ 50%
COc1cc(-c2cncc(C(=O)Nc3ccccc3C)c2)c(Cl)c(OC)c1OC | ≥ 50%
O=C(NCCO)c1cncc(-c2ccc3c(c2)OCO3)c1 | < 50%
Cc1ccc(C)c(NC(=O)c2cncc(-c3ccc(O)cc3)c2)c1 | ≥ 50%
Cc1cc(F)ccc1NC(=O)c1cncc(-c2cccnc2)c1 | < 50%
COc1cc(-c2cncc(C(=O)NC(C)CCc3ccccc3)c2)c(Cl)c(OC)c1OC (centres unmarked) | < 50%
CC(C)C(CO)NC(=O)c1cncc(-c2cccs2)c1 (centres unmarked) | < 50%

* * *

Target: fes (Homo sapiens)
Sequence (P07332 561-822 limits assumed, species assumed): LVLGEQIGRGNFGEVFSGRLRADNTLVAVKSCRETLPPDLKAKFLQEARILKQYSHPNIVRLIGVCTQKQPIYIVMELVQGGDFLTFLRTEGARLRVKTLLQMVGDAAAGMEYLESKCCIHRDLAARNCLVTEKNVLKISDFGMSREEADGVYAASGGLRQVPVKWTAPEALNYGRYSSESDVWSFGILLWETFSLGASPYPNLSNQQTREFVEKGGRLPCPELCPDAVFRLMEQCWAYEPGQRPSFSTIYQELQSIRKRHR
Assay: fes kinase assay (ELISA or Alphascreen)
Assay type: biochemical
Details: read-out: fes inhibition of enzyme activity
# inhibition at 10 µM values compiled below

COMPOUND | inhibition at 10 µM
CC(C)C(CO)NC(=O)c1cncc(-c2ccc3c(c2)OCO3)c1 (centres unmarked) | < 50%
O=C(NCCO)c1cncc(-c2cccs2)c1 | < 50%
COc1ccc(NC(=O)c2cncc(-c3cc(OC)c(OC)c(OC)c3)c2)c(OC)c1 | < 50%
O=C(NCCCn1ccnc1)c1cncc(-c2ccc(F)cc2)c1 | < 50%
COc1ccc(NC(=O)c2cncc(-c3ccc(F)cc3)c2)c(OC)c1 | < 50%
CC(C)NC(=O)c1cncc(-c2ccc(O)cc2)c1 | < 50%
COc1cc(-c2cncc(C(=O)NC(C)C)c2)c(Cl)c(OC)c1OC | < 50%
CN(Cc1ccccc1)C(=O)c1cncc(-c2cccs2)c1 | ≥ 50%
O=C(NCc1ccc(Cl)c(Cl)c1)c1cncc(-c2ccc(O)cc2)c1 | < 50%
CN(C)CCNC(=O)c1cncc(-c2ccc(F)cc2)c1 | < 50%
O=C(Nc1ccc(N2CCOCC2)cc1)c1cncc(-c2cccs2)c1 | ≥ 50%

* * *

Measured inhibition at 10 µM, listed per entry for reference.
Molecular target: fms (Homo sapiens)
Sequence (P07333 582-910 limits assumed, species assumed): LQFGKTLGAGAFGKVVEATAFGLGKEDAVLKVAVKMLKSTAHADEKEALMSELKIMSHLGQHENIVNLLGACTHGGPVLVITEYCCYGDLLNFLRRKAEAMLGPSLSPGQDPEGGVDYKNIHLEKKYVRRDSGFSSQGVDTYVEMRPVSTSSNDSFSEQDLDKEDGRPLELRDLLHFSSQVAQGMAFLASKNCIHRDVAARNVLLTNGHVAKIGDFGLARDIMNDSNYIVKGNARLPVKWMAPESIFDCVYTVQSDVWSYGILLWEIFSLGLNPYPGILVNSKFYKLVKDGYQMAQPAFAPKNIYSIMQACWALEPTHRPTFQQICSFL
Test: fms kinase assay (ELISA or Alphascreen)
Type: biochemical
Conditions: read-out: fms inhibition of enzyme activity

COMPOUND | TARGET SYSTEM | inhibition at 10 µM
CC(C)C(CO)NC(=O)c1cncc(-c2ccc3c(c2)OCO3)c1 (stereo not drawn) | fms (Homo sapiens) | < 50%
CN(C)CCNC(=O)c1cncc(-c2ccc(F)cc2)c1 | fms (Homo sapiens) | < 50%
COc1cc(-c2cncc(C(=O)NCc3cccc(F)c3)c2)c(Cl)c(OC)c1OC | fms (Homo sapiens) | < 50%
C[C@@H](NC(=O)c1cncc(-c2ccc3c(c2)OCO3)c1)c1ccccc1 | fms (Homo sapiens) | < 50%
Cc1cc(-c2cncc(C(=O)Nc3ccccc3)c2)cc(C)c1O | fms (Homo sapiens) | < 50%
Cc1ccccc1NC(=O)c1cncc(-c2ccc(O)cc2)c1 | fms (Homo sapiens) | ≥ 50%

* * *

Molecular target: hck (Homo sapiens, UniProt P08631)
Experiment: hck kinase assay (ELISA or Alphascreen)
Format: biochemical
Settings: read-out: hck inhibition of enzyme activity

COMPOUND | TARGET SYSTEM | inhibition at 10 µM
C[C@@H](NC(=O)c1cncc(-c2ccncc2)c1)c1ccccc1 | hck (Homo sapiens, UniProt P08631) | < 50%
Cc1ccc(F)cc1NC(=O)c1cncc(-c2cccs2)c1 | hck (Homo sapiens, UniProt P08631) | ≥ 50%
CC(NC(=O)c1cncc(-c2ccc(O)cc2)c1)c1ccc(F)cc1 (centres unmarked) | hck (Homo sapiens, UniProt P08631) | < 50%
C[C@@H](NC(=O)c1cncc(-c2ccc3c(c2)OCO3)c1)c1ccccc1 | hck (Homo sapiens, UniProt P08631) | < 50%
Cc1ccccc1NC(=O)c1cncc(-c2ccc3c(c2)OCO3)c1 | hck (Homo sapiens, UniProt P08631) | ≥ 50%
COc1ccc(CNC(=O)c2cncc(-c3cc(C)c(O)c(C)c3)c2)cc1 | hck (Homo sapiens, UniProt P08631) | < 50%
C[C@H](NC(=O)c1cncc(-c2ccc(F)cc2)c1)c1ccccc1 | hck (Homo sapiens, UniProt P08631) | < 50%
Cc1cc(-c2cncc(C(=O)NCc3ccncc3)c2)cc(C)c1O | hck (Homo sapiens, UniProt P08631) | < 50%
CC(C)C(CO)NC(=O)c1cncc(-c2cccnc2)c1 (centres unmarked) | hck (Homo sapiens, UniProt P08631) | < 50%
COc1cccc(-c2cncc(C(=O)NCCc3ccccc3)c2)c1 | hck (Homo sapiens, UniProt P08631) | < 50%
CC(C)C(CO)NC(=O)c1cncc(-c2ccc(F)cc2)c1 (centres unmarked) | hck (Homo sapiens, UniProt P08631) | < 50%
